test system: HAB1; assay: Yeast two hybrid of pBD-PYR1 site saturation mutants with pACT-HAB1 on 10 μM ABA, β-galactosidase staining; format: cell-based, Arabidopsis; parameters: key: x: Mutations in PYR1 that disrupt ABA-induced binding to PYR1 to HAB1; conditions: S. cerevisiae Y190, 10 μM ABA; dead = lack of visible staining in comparison to wild type control
measurement-name: Mutations in PYR1 that disrupt ABA-induced binding to PYR1 to HAB1

- molecule: "D155M: PYR1 mutant (protein, UniProt O49686 1-191, looked up, variant D155M) Abscisic acid receptor PYR1: MPSELTPEERSELKNSIAEFHTYQLDPGSCSSLHAQRIHAPPELVWSIVRRFDKPQTYKHFIKSCSVEQNFEMRVGCTRDVIVISGLPANTSTERLDILDDERRVTGFSIIGGEHRLTNYKSVTTVHRFEKENRIWTVVLESYVVDMPEGNSEDMTRMFADTVVKLNLQKLATVAEAMARNSGDGSGSQVT"
  reported-result: "x"
- molecule: "D155C: PYR1 mutant (protein, UniProt O49686 1-191, looked up, variant D155C) Abscisic acid receptor PYR1: MPSELTPEERSELKNSIAEFHTYQLDPGSCSSLHAQRIHAPPELVWSIVRRFDKPQTYKHFIKSCSVEQNFEMRVGCTRDVIVISGLPANTSTERLDILDDERRVTGFSIIGGEHRLTNYKSVTTVHRFEKENRIWTVVLESYVVDMPEGNSEDCTRMFADTVVKLNLQKLATVAEAMARNSGDGSGSQVT"
  reported-result: "x"
- molecule: "S85E: PYR1 mutant (protein, UniProt O49686 1-191, looked up, variant S85E) Abscisic acid receptor PYR1: MPSELTPEERSELKNSIAEFHTYQLDPGSCSSLHAQRIHAPPELVWSIVRRFDKPQTYKHFIKSCSVEQNFEMRVGCTRDVIVIEGLPANTSTERLDILDDERRVTGFSIIGGEHRLTNYKSVTTVHRFEKENRIWTVVLESYVVDMPEGNSEDDTRMFADTVVKLNLQKLATVAEAMARNSGDGSGSQVT"
  reported-result: "x"
